Molecular target: RBD-FH, monomeric RBD (332-534) with a FLAG peptide and an 8xHis-tag at the C-terminus (SARS-CoV-2, UniProt P0DTC2 332-534)
kon values for the binders below.
Remember to quote the unit after the number.

Field: example entries. Status: answers known.
{"binder": "Nb 2.1 (VHH) VHH: QVQLVESGGGSVQAGGSLRLSCAAFGATISSAHMGWFRQAPGKEREGVAFRYTDGSSTYYTTSVRGRFTISQDNAKNTVYLQMNSLKPEDTAMYYCASNPSWGRLVGGQYNNWGQGTQITVSS", "test result": "1.34e+06 M⁻¹ s⁻¹"}
{"binder": "Nb 1.16 (VHH) VHH: QVQLVESGGGSVQAGGSLRLSCAASGNTSKRKCVGWFRRAPGKEREGVTLIYTVGGSTVYADSVKGRFTISQDNAKDTVYLQMNSLKPEDSAMYYCAAESWGRQCNLETHRFTFWGQGTQVTVSS", "test result": "1.96e+06 M⁻¹ s⁻¹"}
{"binder": "Nb 1.29 (VHH) VHH: QVQLVESGGGSVQAGGSLRLSCAASGYTINTDAVAWFRQAPGKGDERVAVIYTGSGNTNYADSVKGRFTISQDNAKNTVYLQMNSLKPEDTALYYCASGYYGASGYDFNNWGQGTQVTVSS", "test result": "476000 M⁻¹ s⁻¹"}

Request: Would you kindly share the measured kon for Nb 2.20 (VHH) VHH: QVQLVESGGGSVQAGGSLRLSCAASGYTYNNYYMGWFRQAPGKEREGVAAINSDGLDTYVADSVKGRFTISRDNAKDTVHLQMNSLKPEDTAIYSCATGRTVYYSGYDFRLSVDDYWGQGTQVTVSS ?
Result: 1.3e+06 M⁻¹ s⁻¹

Request: Which kon value belongs to Nb 2.11 (VHH) VHH: QVQLVESGGGSVQAGGSLRLSCAASGDASNRKCVSWFRRAPGKEREGVALIFPVGSSTAYADSVKGRFTISQDSAKDTVYLQMNNLKPEDSGTYYCAAVSWGGRCNLETQTVTFWGQGTQVTVSS ?
Result: 3.15e+06 M⁻¹ s⁻¹

Request: Endpoint output: kon of Nb 1.26 (VHH) VHH: QVQLVESGGGLVQAGGSLRLSCAATGYTWSSVCMGWFRQAPGKEREGVAGIPSGRNRPYYADSVKGRFTISQDNAKNAVFLLMNSLKPEDTAIYYCAPCSAPHDPEYNYWGQGTQVTVSS . Value?
Result: 2.44e+06 M⁻¹ s⁻¹
